System: SNB-19 CNS
experimental protocol: NCI tumour cell line growth inhibition, 48 h
observable: TGI

1) C/C(=N\O)c1cccc(Nc2c3ccccc3nc3occc23)c1	> 100 µM
2) CC1OC(CO)(n2cnc3c(N)ncnc32)C(O)C1O (centres undefined)	> 100 µM

Value of measured TGI for the entry COC(=O)[C@]12CC[C@@H](C)[C@H](C)[C@@H]1C1=CC[C@@H]3[C@@](C)(CC#N)C4=C(C[C@@]3(C)[C@]1(C)CC2)OC[C@]4(C)C=O : > 100 µM

Value of measured TGI for the entry COc1c(B(O)O)cccc1-c1nc2c(F)cc3n[nH]c(C)c3c2c2c1CCCC2 : > 50 µM

====

System: SN12C renal
experimental protocol: NCI tumour cell line growth inhibition, 48 h
observable: TGI

Consider the worked cases shown below.
1. Nc1n[nH]c2ccc([C@@H]3Nc4ccc5cn[nH]c5c4[C@H]4C5CCC(C5)[C@@H]34)cc12 (stereo partly specified)	> 100 µM
2. O=C(Nc1ccc(Cl)cc1)c1cc(S(=O)(=O)N2CCNNC2=O)c(S)cc1Cl	> 100 µM
3. C=CC(=O)N1CCC[C@@H](n2nc(-c3ccc(Oc4ccccc4)cc3)c3c(N)ncnc32)C1	> 10 µM

Value of measured TGI for the entry O=c1oc2ccccc2n1P(=O)(Oc1ccc(Cl)cc1)n1c(=O)oc2ccccc21 : > 100 µM

Value of measured TGI for the entry CCc1ccccc1NC(=O)C(=O)C1C(=O)N(c2ccccc2)N=C1N (stereo unspecified) : > 100 µM

Value of measured TGI for the entry CC1C(O)=C(O)c2ccccc2N1O (stereo unspecified) : > 100 µM

====

Each record here notes measured TGI.
Tested on: NCI-H522 lung
experimental protocol: NCI tumour cell line growth inhibition, 48 h

Consider the worked cases shown below.
1) C[C@]12CC[C@@H]3c4ccc(OC(=O)N(CCCl)CCCl)cc4CC[C@H]3[C@@H]1CC[C@@H]2OP(=O)(O)O	> 71.5 µM
2) CCCCCCCCCCCCCCCC(=O)OC1C(O)C(O)C(O)C(O)C12CO2 (stereo not drawn)	> 100 µM

Proceed to the following item.
Value of measured TGI for the entry COc1cc(CC(=O)O)c([N+](=O)[O-])cc1OC : > 100 µM

====

Tested on: HCT-116 colon
experimental protocol: NCI tumour cell line growth inhibition, 48 h; in the data active = GI50 below about 0.43 µM; inactive = the rest
Pick one: active, inactive

Check out these entries, answers already filled in.
1. COc1cc(N2CCC(N)CC2)ccc1Nc1ncc(Cl)c(-c2c[nH]c3ccccc23)n1	active
2. O=c1/c(=C\c2ccc(Br)cc2)sc2n1C(c1ccc(Br)cc1)C1=C(N=2)c2ccc3ccccc3c2OCC1 (centres undefined)	inactive
3. O=C(Nc1cccc(-n2cc(-c3ccncc3)c(-c3ccc(Cl)c(O)c3)n2)c1)Nc1ccc(Cl)c(Cl)c1	inactive

Now consider the entry below.
Prompt line: State the result this test recorded for O=C(N/N=C/c1ccncc1)c1ccc(F)cc1 .
Response line: inactive

====

Tested on: HCT-116 colon
experimental protocol: NCI tumour cell line growth inhibition, 48 h
Each record here notes measured TGI.

Consider the worked cases shown below.
1. COC(=O)C1=CC(=O)[C@@H]2CCCC[C@H]12	> 100 µM
2. O=C(CCN1CCCN(c2cnc3ccccc3n2)CC1)c1csc2ccccc12	30.1 µM
3. N#Cc1cccc(C2C(=O)c3ccc(C(=O)c4ccc5c(c4)C(=O)N(c4ccc(Oc6ccc(N7C(=O)c8ccc(C(=O)c9ccc%10c(c9)C(=O)N(c9cccc(C#N)c9)C%10=O)cc8C7=O)cc6)cc4)C5=O)cc3C2=O)c1 (configuration not stated)	> 100 µM
4. NC1NCCC(=O)N1CCc1c[nH]c2ccccc12 (configuration not stated)	26.5 µM
5. CC1(C)C(CC(=O)O)CCCC1CC(=O)O (configuration not stated)	> 100 µM
6. [O-][N+]1=C2CCC/C(=N/O)C2(O)C2CCCCC21N1CCOCC1 (configuration not stated)	> 100 µM
7. Cc1ccc(NC(=O)CC2SC(=Nc3ccc(Cl)cc3)NC2=O)cc1C (configuration not stated)	32.9 µM
8. O=C(O)c1ccc(Nc2cnc3cc(C(F)(F)F)ccc3n2)cc1	> 100 µM

Value of measured TGI for the entry CCN(CC)CC(O)c1cc(-c2ccc(Cl)cc2)nc2c(C)c(Cl)ccc12 (configuration not stated) : 3.18 µM

Value of measured TGI for the entry CCCC(C(=O)OC)C1N=C(NC#N)N(Cc2ccccc2)C1=O (configuration not stated) : > 100 µM

Value of measured TGI for the entry Cn1c(=O)n(C2(C)CSC2)c2ccccc21 : > 100 µM

Value of measured TGI for the entry COC1C(=O)CCC2(CO2)C1(O)C1(C)OC1CC=C(C)C (configuration not stated) : > 100 µM
